- measurement.description: Human crossover pharmacokinetic interaction study of WM (Tamiflu) alone or with CMF1
- Assay type: in vivo, human (Chinese male healthy volunteers)
- condition.parameters: male, in vivo, 75 mg; human, day 5, WM alone, n = 14, arithmetic mean ± SD; read-out: T 1/2 (terminal half-life) (converted)
quantity: half-life

Req: Give me measured half-life, please, for this molecule: CCC(CC)O[C@@H]1C=C(C(=O)O)C[C@H](N)[C@H]1NC(C)=O [OC, oseltamivir carboxylate]
Resp: 310 min

* * *

- measurement.description: Human crossover pharmacokinetic interaction study of WM (Tamiflu) alone or with CMF1
- Type: in vivo, human (Chinese male healthy volunteers)
- condition.parameters: male, human, in vivo, human, both treatments (WM and WM + CMF1); read-out: 2 h post-dose plasma concentration
quantity: concentration at 2 h

Req: Give me measured concentration at 2 h, please, for this molecule: CCC(CC)O[C@@H]1C=C(C(=O)O)C[C@H](N)[C@H]1NC(C)=O [OC, oseltamivir carboxylate]
Resp: 410 to 436 ng/mL
